B1: KLHL13 (parent)
chain: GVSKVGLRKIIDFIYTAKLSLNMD

Variants of: B1
Assay overview: protein stability index of a GFP-peptide fusion (GPS, HEK-293T) (PSI 1-6); higher = more stable;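 also: lentivirally expressed fusions sorted by FACS into six bins by GFP to DsRed ratio, PSI derived from sequencing read proportions per bin multiplied by bin number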
Details: c terminus: a fixed tail appended
Measured metric: protein stability index
Give a plain numeric answer without units written out.

Illustrative cases are given below, each with its answer.
R8D; 3.02
S20K; 3.46
Y15N; 4.89
S20E; 4.11
G6H; 3.04

[in] Looking for the measured protein stability index of V5S , can you help?
[out] 3.47
